Source listed as PubChem BioAssay (NCI).

Test system: UO-31 renal
Assay: NCI-60 one-dose screen, 48 h
Conditions: 10 µM unless noted
This is part of a sample that, as a whole, favours compounds with a hit. Of some 83,000 tested, about 20% had one in any assay. Activity calls are given as the source filed them. How the source made its calls: active means growth percent below 10; inactive means the rest.
Labels: active, inactive

- molecule: "Cc1sc2nc(NCc3ccccc3)[nH]c(=O)c2c1C"
  category: "inactive"
- molecule: "NS(=O)(=O)c1ccc(N2CC(c3nc4ccccc4[nH]3)CC2=O)cc1 (stereo unspecified)"
  category: "inactive"
- molecule: "O=C(/C=C/c1ccc(C(F)(F)F)cc1)c1ccc(Nc2nc(NCCO)nc(NCCO)n2)cc1"
  category: "inactive"
- molecule: "CCN(CC)CCCCCCCNc1c2ccc(Cl)cc2nc2ccc(OC)cc12"
  category: "active"
- molecule: "Cc1cc(=O)oc2cc(OCCn3c(C)nn(-c4ccc(Cl)cc4)c3=O)ccc12"
  category: "inactive"
- molecule: "O=C(Nc1ccccc1OC(=O)c1ccccc1)c1ccccc1"
  category: "inactive"

---

System: A549/ATCC NSCLC
Assay: NCI-60 one-dose screen, 48 h
Conditions: 10 µM unless noted
About 83,000 compounds went through this panel and 20% of them were active in at least one assay; those are over-represented in the sample as a whole. Activity calls are given as the source filed them. How the source made its calls: active means growth percent below 10; inactive means the rest.
Labels: YES = active, NO = inactive

- compound: "FC(F)(F)c1cc(-c2nnc3n2N=C(N2CCCC2)CS3)cc(C(F)(F)F)c1"
  category: "NO"
- compound: "O=C1/C(=C/c2ccc(F)cc2)Cc2ccccc21"
  category: "NO"
- compound: "O=C1C=CC(=O)N1c1ccccn1"
  category: "NO"
- compound: "C=C1CC[C@@H]2[C@](C)(COC(C)=O)[C@H](OC(C)=O)CC[C@@]2(C)[C@@H]1CC(NCc1ccccc1)C1=CCOC1=O (some centres undefined)"
  category: "NO"
- compound: "NS(=O)(=O)c1ccc(N2CC(c3nc4ccccc4[nH]3)CC2=O)cc1 (centres undefined)"
  category: "NO"
- compound: "Nc1nc(Nc2ccccc2SSc2ccccc2Nc2nc(N)nc(-c3ccc(I)cc3)n2)nc(-c2ccc(I)cc2)n1"
  category: "YES"
- compound: "COc1cccc(-c2nc(-c3ccc(N)cc3)co2)c1"
  category: "NO"
- compound: "O=c1[nH]c(N2CCC(Cc3ccccc3)CC2)nc2sc3c(c12)CCCC3"
  category: "NO"
- compound: "O=c1oc2c(cc1-c1ccc([N+](=O)[O-])cc1)C(O)Oc1ccccc1-2 (centres undefined)"
  category: "NO"
- compound: "CCCc1n(Cc2ccc3ccccc3c2)cc[n+]1Cc1ccc2ccccc2c1"
  category: "NO"
- compound: "COc1ccc2c(c1)sc1nc(-c3ccc(Br)cc3)cn12"
  category: "NO"
- compound: "CC(=O)Nc1c(Cl)cc2c(c1Cl)Cc1ccccc1-2"
  category: "NO"
- compound: "COc1ccc([N+](=O)[O-])c(S(=O)(=O)c2ccc(Cl)cc2)n1"
  category: "NO"
- compound: "COc1ccccc1-n1c(-c2ccc(O)cc2C)cn2c3c(=O)[nH]c(=O)n(C)c3nc12"
  category: "NO"
- compound: "CCN(CC)CCSc1ncnc2c1cnn2-c1ccc(S(N)(=O)=O)cc1"
  category: "NO"
- compound: "O=[N+]([O-])c1ccc(N=Nc2c(Cl)cc(O)cc2Cl)cc1"
  category: "NO"
- compound: "N#Cc1c(-c2ccccc2)cc(-c2ccccc2)n(CCC(=O)O)c1=O"
  category: "NO"
- compound: "Fc1ccc(-c2nn3c(-c4cc(C(F)(F)F)cc(C(F)(F)F)c4)nnc3s2)cc1"
  category: "NO"
- compound: "CC(=O)c1ccc(NS(=O)(=O)c2ccc([N+](=O)[O-])cc2)cc1"
  category: "NO"
- compound: "O=C(Nc1ccccc1)c1cc(-n2cnc([N+](=O)[O-])c2)cc(-n2cnc([N+](=O)[O-])c2)n1"
  category: "NO"
- compound: "COC(=O)[C@H]1[C@H]2C[C@@H]3c4[nH]c5cc(OC)ccc5c4CCN3C[C@H]2C[C@@H](OC(=O)/C=C/c2cc(OC)c(OC)c(OC)c2)[C@@H]1OC"
  category: "NO"
- compound: "O=C(CNC(=O)c1cccc2ccccc12)Nc1ccccc1Oc1cccc(O)c1"
  category: "NO"
- compound: "O=C(CNC(=O)c1cccc2ccccc12)Nc1ccccc1Cc1ccccc1"
  category: "NO"
- compound: "O=C(Nc1cccc(-n2cc(-c3ccncc3)c(-c3cc(O)cc(Cl)c3)n2)c1)Nc1ccc(Cl)c(Cl)c1"
  category: "YES"
- compound: "O=c1c2c(=NCCCN3CCCC3)cc3c(=O)n(CCCN4CCCC4)c(=O)c4c(NCCCN5CCCC5)cc(c(O)n1CCCN1CCCC1)c2c4-3"
  category: "YES"
- compound: "C=C1CCC2C3(C)COC(c4ccccc4)OC3CCC2(C)C1C/C=C1/C(=O)OCC1OC(C)=O (centres undefined)"
  category: "NO"
- compound: "CC(=O)N1N=C(c2ccc(C(F)(F)F)cc2)CC1c1ccc2c(c1)OCO2 (centres undefined)"
  category: "NO"
- compound: "CN(C)CCCN=c1cc2c(=O)n(CCCN(C)C)c(=O)c3c(NCCCN(C)C)cc4c(O)n(CCCN(C)C)c(=O)c1c4c3-2"
  category: "YES"
- compound: "Cc1cc(=O)oc2cc(OCCn3c(C)nn(-c4ccc(Cl)cc4)c3=O)ccc12"
  category: "NO"
- compound: "COc1cc(-c2nc3sc4c(c3c(=O)[nH]2)CCCCCC4)cc(OC)c1OC"
  category: "NO"
- compound: "Nc1nc2c(c(=O)[nH]1)C1(C(=O)Nc3ccccc31)c1c(nc(N)[nH]c1=O)N2"
  category: "NO"
- compound: "CCOC(CNCc1cc(C)c2[nH]c3ccccc3c2c1C)OCC"
  category: "NO"
- compound: "OCCCc1n(Cc2ccc3ccccc3c2)c2ccccc2[n+]1Cc1ccc2ccccc2c1"
  category: "NO"
- compound: "c1ccc2nc(Cn3c[n+](Cc4ccc5ccccc5n4)c4ccccc43)ccc2c1"
  category: "NO"
- compound: "O=C1N=C(N2CCOCC2)S/C1=C\\c1cn(-c2ccccc2)nc1-c1ccccc1"
  category: "NO"
- compound: "COc1ccc(OC)c(CCn2cncc2-c2c[nH]c3cc(Br)ccc23)c1"
  category: "NO"
- compound: "COc1cc(NC(C)CCCN)c2nc(C)ccc2c1Oc1ccc(F)cc1 (centres undefined)"
  category: "NO"
- compound: "O=C1/C=C/[C@@H](O)[C@@H]2C[C@@H](O)C[C@H]2/C=C/CCC[C@H](CO)O1"
  category: "NO"
- compound: "Nc1nc2c(nnn2Cc2ccc(Cl)c(Cl)c2)c(=O)[nH]1"
  category: "NO"

---

Consider the following compounds and their measured growth readings.
Test system: MDA-MB-231 breast
Assay: NCI-60 one-dose screen, 48 h (100 = growth as untreated, 0 = no growth, -100 = all killed)
Conditions: 10 µM unless noted
This is part of a sample that, as a whole, favours compounds with a hit. Of some 83,000 tested, about 20% had one in any assay. Activity calls are given as the source filed them. How the source made its calls: active means growth percent below 10; inactive means the rest.
assay-endpoint: growth

- compound: "Cc1ccc2nc(-c3ccc(N(C)C)c(Br)c3)cn2c1"
  measured-target: "MDA-MB-231 breast"
  assay-endpoint: "growth"
  result: "92.9% (inactive)"
- compound: "Cc1cc2c(cc1C)[n+](Cc1ccc3ccccc3c1)cn2Cc1ccc2ccccc2c1"
  measured-target: "MDA-MB-231 breast"
  assay-endpoint: "growth"
  result: "-75.7% (active)"
- compound: "CC[C@@H](c1ccc(O)c(O)c1)[C@@H](CC)c1ccc(O)c(O)c1"
  measured-target: "MDA-MB-231 breast"
  assay-endpoint: "growth"
  result: "89.7% (inactive)"
- compound: "O=C(CC(C(=O)c1ccccc1)N1CCN(Cc2ccccc2)CC1)c1ccccc1 (stereo not given)"
  measured-target: "MDA-MB-231 breast"
  assay-endpoint: "growth"
  result: "96% (inactive)"
- compound: "CNNc1ncnc2c1cnn2-c1ccc(S(N)(=O)=O)cc1"
  measured-target: "MDA-MB-231 breast"
  assay-endpoint: "growth"
  result: "89.5% (inactive)"
- compound: "[N-]=[N+]=NCc1ncc(-c2ccc(C(F)(F)F)cc2)c(NC2CCCCCC2)n1"
  measured-target: "MDA-MB-231 breast"
  assay-endpoint: "growth"
  result: "73% [50 µM] (inactive)"
- compound: "CC(C)CNc1nc(N=[N+]=[N-])nc(NCC(C)C)n1"
  measured-target: "MDA-MB-231 breast"
  assay-endpoint: "growth"
  result: "48.5% [100 µM] (inactive)"
- compound: "COc1ccc2ncccc2c1Cc1c(OC)ccc2ncccc12"
  measured-target: "MDA-MB-231 breast"
  assay-endpoint: "growth"
  result: "71.1% (inactive)"
- compound: "C[C@]12CCC(=O)C=C1CCC1C2[C@@H](O)C[C@@]2(C)C1CC[C@]2(O)C(=O)COC(=O)CCC(=O)O (stereo not given in full)"
  measured-target: "MDA-MB-231 breast"
  assay-endpoint: "growth"
  result: "94.7% (inactive)"
- compound: "CCSc1nc(-c2ccc(F)cc2)c(C#N)c(=O)[nH]1"
  measured-target: "MDA-MB-231 breast"
  assay-endpoint: "growth"
  result: "114% (inactive)"
